- system.name: fusion protein containing GAL4-DNA-binding domain and ERR full-length (Homo sapiens)
- Construct: expressed in transfected cells; host or cells: 293T cells
- assay.info: Reporter assay system using 293T cells (GAL4-ERR luciferase, inverse agonist activity)
- Assay type: cell-based
- measurement.setup: HEK-293T, compound final concentration 3 μM, no compound = 0%, 10 μM XCT-790 = 100%, read-out: inhibition rate (%) at 3 μM
- Method: Experimental Example 2 Compound Evaluation in Reporter Assay System Using 293T Cells 293T cells derived from human kidney were seeded in a 150 cm^2 flask by 6,000,000 cells, and cultured in a medium (DMEM medium containing 10% inactivated Fetal Bovine Serum sterile filtered (FBS), […] Gentamicin, 10 mM HEPES buffer (pH 7.4)) at 37° C. in the presence of 5% CO2 for 1 day. […]
Where a name gives a salt, the structure may show the parent alone.
quantity.kind: inhibition at 3 µM (%)
Numbers only here, please. The scale is %.

The examples below pair each entry with its known result.
compound	system.name	inhibition at 3 µM (%)
O=C1N=C(NCC2CC2)/C(=C/C2CCN(Cc3ccc(C(F)(F)F)cc3C(F)(F)F)CC2)S1 [Example 61, fumarate]	fusion protein containing GAL4-DNA-binding domain and ERR full-length (Homo sapiens)	90
C#CCNC1=NC(=O)S/C1=C\C1CCN(Cc2ccc(C(F)(F)F)cc2C(F)(F)F)CC1 [Example 16, hydrochloride]	fusion protein containing GAL4-DNA-binding domain and ERR full-length (Homo sapiens)	89
CNC1=NC(=O)S/C1=C\C1CCN(Cc2ccc(C(F)(F)F)cc2C(F)(F)F)CC1	fusion protein containing GAL4-DNA-binding domain and ERR full-length (Homo sapiens)	88

[ask] Request the reported inhibition at 3 µM associated with C#CCNC1=NC(=O)S/C1=C\C1CCN(Cc2ccc(C#N)cc2C(F)(F)F)CC1
[reply] 62

* * *

- system.name: fusion protein containing GAL4-DNA-binding domain and ERR full-length (Homo sapiens, UniProt P11474)
- Construct: expressed in transfected cells; host or cells: 293T cells
- assay.info: Reporter assay system using 293T cells (GAL4-ERR luciferase, inverse agonist activity)
- Assay type: cell-based
- measurement.setup: HEK-293T, compound final concentration 3 μM, no compound = 0%, 10 μM XCT-790 = 100%, read-out: inhibition rate (%) at 3 μM
Counter-ions that a name gives are not always drawn.
Attribute: inhibition at 3 µM
Number first, unit second: that is the form wanted.

The examples below pair each entry with its known result.
compound	inhibition at 3 µM
O=C1N=C(NC2CCOC2)/C(=C/C2CCN(Cc3ccc(C(F)(F)F)cc3C(F)(F)F)CC2)S1 (stereo not drawn) [Example 43]	87%
CC(C)(CO)CNC1=NC(=O)S/C1=C\C1CCN(Cc2ccc(C(F)(F)F)cc2C(F)(F)F)CC1 [Example 77]	82%

[ask] Request the reported inhibition at 3 µM associated with C#CCNC1=NC(=O)S/C1=C\C1CCN(Cc2ccc(C(F)(F)F)cc2Cl)CC1 [Example 59, fumarate]
[reply] 67%

[ask] Likewise for C#CCNC1=NC(=O)S/C1=C\C1CCN(Cc2ccc(C(F)(F)F)cc2C(F)(F)F)C1 (stereo not drawn) [Example 69, maleate] ?
[reply] 87%

[ask] Likewise for O=C1N=C(NC2COC2)/C(=C/C2CCN(Cc3ccc(C(F)(F)F)cc3C(F)(F)F)CC2)S1 [Example 20] ?
[reply] 95%

[ask] Likewise for CN(C)C(=O)CCNC1=NC(=O)S/C1=C\C1CCN(Cc2ccc(C(F)(F)F)cc2C(F)(F)F)CC1 [Example 140] ?
[reply] 90%

* * *

- system.name: GST-ERR-α ligand-binding domain (Homo sapiens)
- assay.info: HTRF assay system using ERR-α ligand-binding domain (inverse agonist activity, biotinylated SRC-1 (676-700) peptide)
- Format: biochemical
- measurement.setup: compound final concentration 30 μM; 665/620 ratio; no compound = 0%, 10 μM XCT-790 = 100%; read-out: inhibition rate (%) at 30 μM
Structures can show the parent of a compound that is named as a salt.
quantity.kind: inhibition at 30 µM (%)
Numbers only here, please. The scale is %.

The examples below pair each entry with its known result.
molecule	meas.value
CC(C)(O)CNC1=NC(=O)S/C1=C\C1CCN(Cc2ccc(C(F)(F)F)cc2C(F)(F)F)CC1 [Example 17, fumarate]	106
O=C1N=C(NCC(O)CO)/C(=C/C2CCN(Cc3ccc(C(F)(F)F)cc3C(F)(F)F)CC2)S1 (centres unmarked) [Example 56]	106
CN(C)C(=O)CNC1=NC(=O)S/C1=C\C1CCN(Cc2ccc(C(F)(F)F)cc2C(F)(F)F)CC1 [Example 108]	89
C#CCNC1=NC(=O)S/C1=C\C1CCN(Cc2ccc(C(F)(F)F)cc2C(F)(F)F)C1 (centres unmarked) [Example 69, maleate]	67
COCCOCCNC1=NC(=O)S/C1=C\C1CCN(Cc2ccc(C(F)(F)F)cc2C(F)(F)F)CC1 [Example 39]	106
O=C1N=C(NC2COC2)/C(=C/C2CCN(Cc3ccc(C(F)(F)F)cc3C(F)(F)F)CC2)S1 [Example 20]	105
CNC1=NC(=O)S/C1=C\C1CCN(Cc2ccc(C(F)(F)F)cc2C(F)(F)F)CC1 [Example 37, fumarate]	109
CCN(CC)CCNC1=NC(=O)S/C1=C\C1CCN(Cc2ccc(C(F)(F)F)cc2C(F)(F)F)CC1 [Example 9, dihydrochloride]	107

Next molecule, please.
[ask] Please provide the recorded inhibition at 30 µM for O=C1N=C(NC2CCOC2)/C(=C/C2CCN(Cc3ccc(C(F)(F)F)cc3C(F)(F)F)CC2)S1 (centres unmarked) [Example 43] , tested on GST-ERR-α ligand-binding domain (Homo sapiens).
[reply] 106

* * *

- system.name: fusion protein containing GAL4-DNA-binding domain and ERR full-length (Homo sapiens, UniProt P11474)
- Construct: expressed in transfected cells; host or cells: 293T cells
- Sequence (P11474 1-423): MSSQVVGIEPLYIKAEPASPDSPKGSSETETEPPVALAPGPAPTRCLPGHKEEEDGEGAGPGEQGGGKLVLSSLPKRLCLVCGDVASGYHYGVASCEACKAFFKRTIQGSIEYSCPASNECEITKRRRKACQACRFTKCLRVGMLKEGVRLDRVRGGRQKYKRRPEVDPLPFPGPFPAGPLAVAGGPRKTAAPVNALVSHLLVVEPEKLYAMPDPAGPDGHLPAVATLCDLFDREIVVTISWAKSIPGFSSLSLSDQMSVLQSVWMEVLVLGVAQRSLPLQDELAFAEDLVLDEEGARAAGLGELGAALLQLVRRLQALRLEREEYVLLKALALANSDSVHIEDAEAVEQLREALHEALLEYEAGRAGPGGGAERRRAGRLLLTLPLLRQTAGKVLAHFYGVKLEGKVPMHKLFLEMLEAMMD
- assay.info: Reporter assay system using 293T cells (GAL4-ERR luciferase, inverse agonist activity)
- Format: cell-based
- measurement.setup: HEK-293T, compound final concentration 3 μM, no compound = 0%, 10 μM XCT-790 = 100%, read-out: inhibition rate (%) at 3 μM
Where a name gives a salt, the structure may show the parent alone.
Attribute: inhibition at 3 µM
Number first, unit second: that is the form wanted.

The examples below pair each entry with its known result.
compound	meas.value
CN(C)C(=O)[C@H](CO)NC1=NC(=O)S/C1=C\C1CCN(Cc2ccc(C(F)(F)F)cc2C(F)(F)F)CC1	78%
CN(C)C(=O)CNC1=NC(=O)S/C1=C\C1CCN(Cc2ccc(C(F)(F)F)cc2C(F)(F)F)CC1	81%
CNC1=NC(=O)S/C1=C\[C@@H]1C[C@H]2CC[C@@H](C1)N2Cc1ccc(C(F)(F)F)cc1C(F)(F)F	88%
CN(C)C(=O)[C@@H](CO)NC1=NC(=O)S/C1=C\C1CCN(Cc2ccc(C(F)(F)F)cc2C(F)(F)F)CC1	90%
O=C1N=C(NCCOCCO)/C(=C/C2CCN(Cc3ccc(C(F)(F)F)cc3C(F)(F)F)CC2)S1	89%

[ask] Request the reported inhibition at 3 µM associated with CC(C)(O)CNC1=NC(=O)S/C1=C\C1CCN(Cc2ccc(C(F)(F)F)cc2C(F)(F)F)CC1 [Example 17, fumarate]
[reply] 97%

[ask] Likewise for CCN(CC)CCNC1=NC(=O)S/C1=C\C1CCN(Cc2ccc(C(F)(F)F)cc2C(F)(F)F)CC1 [Example 9, dihydrochloride] ?
[reply] 88%

[ask] Likewise for CNC1=NC(=O)N(C)/C1=C\C1CCN(Cc2ccc(C(F)(F)F)cc2C(F)(F)F)CC1 ?
[reply] 86%

[ask] Likewise for CN(CCO)CCNC1=NC(=O)S/C1=C\C1CCN(Cc2ccc(C(F)(F)F)cc2C(F)(F)F)CC1 ?
[reply] 91%

* * *

Attribute: inhibition at 30 µM
- system.name: GST-ERR-α ligand-binding domain (Homo sapiens, UniProt P11474)
- assay.info: HTRF assay system using ERR-α ligand-binding domain (inverse agonist activity, biotinylated SRC-1 (676-700) peptide)
- Type: biochemical
- measurement.setup: compound final concentration 30 μM; 665/620 ratio; no compound = 0%, 10 μM XCT-790 = 100%; read-out: inhibition rate (%) at 30 μM
Structures can show the parent of a compound that is named as a salt.
Numbers only here, please. The scale is %.

The examples below pair each entry with its known result.
molecule	inhibition at 30 µM, %
C#CCNC1=NC(=O)S/C1=C\C1CCN(Cc2ccc(C(F)(F)F)cc2C(F)(F)F)CC1 [Example 16, hydrochloride]	112
CNC1=NC(=O)N(C)/C1=C\C1CCN(Cc2ccc(C(F)(F)F)cc2C(F)(F)F)CC1 [Example 80]	105
CCCNC1=NC(=O)S/C1=C\C1CCN(Cc2ccc(C(F)(F)F)cc2C(F)(F)F)CC1 [Example 200]	101
CN(C)C(=O)[C@@H](CO)NC1=NC(=O)S/C1=C\C1CCN(Cc2ccc(C(F)(F)F)cc2C(F)(F)F)CC1 [Example 115]	99

[ask] Request the reported inhibition at 30 µM associated with CC(C)(CO)CNC1=NC(=O)S/C1=C\C1CCN(Cc2ccc(C(F)(F)F)cc2C(F)(F)F)CC1 [Example 77]
[reply] 109

[ask] Likewise for CCNC1=NC(=O)S/C1=C\C1CCN(Cc2ccc(C(F)(F)F)cc2C(F)(F)F)CC1 [Example 199] ?
[reply] 101

[ask] Likewise for O=C1N=C(NCCOCCO)/C(=C/C2CCN(Cc3ccc(C(F)(F)F)cc3C(F)(F)F)CC2)S1 [Example 13] ?
[reply] 105

[ask] Likewise for CNC1=NC(=O)S/C1=C\[C@@H]1C[C@H]2CC[C@@H](C1)N2Cc1ccc(C(F)(F)F)cc1C(F)(F)F [Example 15] ?
[reply] 102

Just for reference, patent US8772277B2 is where these values come from.
